assayedSystem: Drosophila OR85b (Drosophila melanogaster)
Construct: expressed in transfected cells
Sequence (Q9VHQ7 whole entry): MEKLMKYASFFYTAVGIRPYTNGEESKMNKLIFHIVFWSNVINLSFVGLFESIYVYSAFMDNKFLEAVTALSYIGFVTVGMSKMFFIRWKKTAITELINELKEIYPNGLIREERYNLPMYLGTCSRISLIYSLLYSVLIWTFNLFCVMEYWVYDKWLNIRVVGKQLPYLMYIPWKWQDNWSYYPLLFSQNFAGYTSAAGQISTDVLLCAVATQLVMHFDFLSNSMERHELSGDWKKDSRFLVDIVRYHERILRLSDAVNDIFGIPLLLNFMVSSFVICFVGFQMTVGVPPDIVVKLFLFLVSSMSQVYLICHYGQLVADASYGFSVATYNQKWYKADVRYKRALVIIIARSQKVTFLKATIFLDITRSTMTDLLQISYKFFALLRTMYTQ
Sequence (Q9VNB5 whole entry partner): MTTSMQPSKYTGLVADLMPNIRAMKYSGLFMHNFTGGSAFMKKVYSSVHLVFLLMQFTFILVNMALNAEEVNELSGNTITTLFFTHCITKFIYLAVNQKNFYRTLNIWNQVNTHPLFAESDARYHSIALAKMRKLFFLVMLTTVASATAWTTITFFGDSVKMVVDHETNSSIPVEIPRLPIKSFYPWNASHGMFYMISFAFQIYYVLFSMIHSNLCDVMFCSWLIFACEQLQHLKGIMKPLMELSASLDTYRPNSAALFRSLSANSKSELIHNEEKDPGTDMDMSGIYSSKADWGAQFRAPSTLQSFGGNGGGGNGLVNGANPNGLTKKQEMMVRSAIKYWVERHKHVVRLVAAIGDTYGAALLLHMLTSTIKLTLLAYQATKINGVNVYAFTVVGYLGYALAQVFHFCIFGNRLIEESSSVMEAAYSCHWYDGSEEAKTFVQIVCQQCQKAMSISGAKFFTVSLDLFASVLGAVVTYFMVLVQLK
assayName: Calcium ion fluorescence (GCaMP6) assay, OR85b stable HEK293 cell line
Assay type: cell-based
settings: ligand concentration 10 (unit not given); threshold 0.05, below shown as 0
measurementType: DF norm AVERAGE OR85b
Reply with the value as a number alone.

Briefly, DF norm AVERAGE OR85b measured for `OCCc1ccccc1` : 0.07579

Briefly, DF norm AVERAGE OR85b measured for CCCCCC(=O)OCC [ethyl hexanoate] : 0

Briefly, DF norm AVERAGE OR85b measured for CCOC(=O)CC [ethyl propionate] : 0

Briefly, DF norm AVERAGE OR85b measured for C=C1CCC2(C(C)C)CC12 (stereo not shown) : 0

Briefly, DF norm AVERAGE OR85b measured for `CC1=CC[C@@H](C(C)(C)O)CC1` : 0

Briefly, DF norm AVERAGE OR85b measured for `CCc1ccccc1` : 0

Briefly, DF norm AVERAGE OR85b measured for `CC/C=C/CCO` : 0

Briefly, DF norm AVERAGE OR85b measured for `Cc1cccc(C)c1` : 0

Briefly, DF norm AVERAGE OR85b measured for CC(=O)OCCC(C)C [isopentyl acetate] : 0.07146

Briefly, DF norm AVERAGE OR85b measured for COC(=O)c1ccccc1 [methyl benzoate] : 0

Briefly, DF norm AVERAGE OR85b measured for CCCC(=O)OCC [ethyl butyrate] : 0

Briefly, DF norm AVERAGE OR85b measured for CCCCCOC(C)=O [pentyl acetate] : 0

Briefly, DF norm AVERAGE OR85b measured for `Cc1ccc(C(C)C)cc1` : 0.1172
